Give residual activity for every item shown.
system-tested: SUMO-activating enzyme subunit 1 (Homo sapiens) (UniProt Q9UBE0)
Sequence (whole entry): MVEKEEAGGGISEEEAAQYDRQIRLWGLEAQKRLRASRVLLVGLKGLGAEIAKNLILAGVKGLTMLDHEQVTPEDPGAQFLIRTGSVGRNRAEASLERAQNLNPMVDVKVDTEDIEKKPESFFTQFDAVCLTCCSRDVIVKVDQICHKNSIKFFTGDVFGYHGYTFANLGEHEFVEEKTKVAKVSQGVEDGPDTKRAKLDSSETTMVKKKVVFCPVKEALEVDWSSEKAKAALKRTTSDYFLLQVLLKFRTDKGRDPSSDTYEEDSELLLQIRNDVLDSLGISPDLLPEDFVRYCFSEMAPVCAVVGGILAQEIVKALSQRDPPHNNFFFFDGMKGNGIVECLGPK
measurement-notes: Inhibition of recombinant GST-fused SUMO E1 (unknown origin) using RanGAP1 as substrate at 20 uM after 2 hrs by immunoblot analysis
run-parameters: values are per cent of control
Answer format: numeric, % implied, no suffix.

query: Entry `CCc1cc(=O)[nH]c(-n2nc(-c3ccccc3)cc2NC(=O)Nc2cc(OC)cc(OC)c2)n1` has what residual activity?
result: 82.3

query: Entry `COc1cc(NC(=O)Nc2nc3c(OC)ccc(C)c3s2)cc(OC)c1OC` has what residual activity?
result: 99.3

query: Entry `O=C(Nc1cccc(Cl)c1)Nc1nc2c(ccc3ccccc32)s1` has what residual activity?
result: 69.3

query: Entry `CCc1cc(=O)[nH]c(-n2nc(-c3ccccc3)cc2NC(=O)Nc2ccc3c(c2)OCO3)n1` has what residual activity?
result: 36.7

query: Entry `CCOc1ccc(NC(=O)Nc2nc(-c3ccccc3)c(C)s2)cc1` has what residual activity?
result: 76.7

query: Entry `COc1ccccc1NC(=O)Nc1cc(C(C)(C)C)nn1-c1ccccc1` has what residual activity?
result: 99.6

query: Entry `COc1ccc(NC(=O)Nc2cc(C)nn2-c2ccc(F)cc2)cc1` has what residual activity?
result: 97.7

query: Entry `Cc1ccc(-c2nc(NC(=O)Nc3ccc(Cl)cc3)sc2C)cc1` has what residual activity?
result: 91.8

query: Entry `Cn1nc(-c2ccc(Cl)cc2)cc1NC(=O)Nc1ccc(OCc2ccccc2)cc1` has what residual activity?
result: 73.4

query: Entry `Cc1sc(NC(=O)Nc2ccc(Cl)cc2)nc1-c1ccccc1` has what residual activity?
result: 91.5

query: Entry `COc1cc(NC(=O)Nc2nc3cc(C)c(C)cc3s2)cc(OC)c1OC` has what residual activity?
result: 94.8

query: Entry `COc1cccc(NC(=O)Nc2cc(C)nn2C2CCCC2)c1` has what residual activity?
result: 100

query: Entry `Cc1ccc(-c2nc(NC(=O)Nc3ccccc3)sc2C)cc1Cl` has what residual activity?
result: 65.6

query: Entry `Cc1ccc(-c2nc(NC(=O)Nc3ccc(OCc4ccccc4)cc3)sc2C)cc1Cl` has what residual activity?
result: 64.8

query: Entry `COc1ccccc1NC(=O)Nc1nc(-c2ccc(OC)c(OC)c2)cs1` has what residual activity?
result: 88.1

query: Entry `COc1cccc(NC(=O)Nc2nc(C)c(C(C)=O)s2)c1` has what residual activity?
result: 96.6

query: Entry `Cc1ccc(-c2nc(NC(=O)Nc3cccc(Cl)c3)sc2C)cc1` has what residual activity?
result: 88.5

query: Entry `CCOC(=O)c1sc(NC(=O)Nc2ccc(Cl)c(Cl)c2)nc1C` has what residual activity?
result: 53.8

query: Entry `COc1cc(NC(=O)Nc2nc(-c3nc4ccccc4s3)cs2)cc(OC)c1OC` has what residual activity?
result: 37.6
